Data provenance: ChEMBL document CHEMBL5244222

molecular target: Alpha-glucosidase (Saccharomyces cerevisiae S288c, UniProt P53341+P38158+P07265); assay: Inhibition of Saccharomyces cerevisiae alpha-glucosidase assessed as release of p-nitrophenol using pNPG as substrate preincubated for 15 mins followed by substrate addition and measured after 5 mins by spectrophotometric assay; format: protein assay
measured.metric: IC50 (µM)

A: C=C(C)/C=C/[C@]1(C)C=CC2=C(O1)C(CC=C(C)C)=C1O[C@]34C(C(=O)[C@@H]1C2O)[C@@H](OC)[C@@H]1C[C@H]3C(C)(C)O[C@@]4(C/C=C(\C)C(=O)O)C1=O (stereo partly drawn)
B: C=C(C)/C=C/[C@]1(C)C=CC2=C(O1)C(CC=C(C)C)=C1O[C@]34C(=C[C@@H]5C[C@H]3C(C)(C)O[C@@]4(CC=C(C)C)C5=O)C(=O)[C@@H]1C2O (stereo partly drawn)
-- ask Lower value of IC50 belongs to which: A or B ? Which one? Tell me its label.
-- reply A
(A: 108.75 µM, B: 209.2 µM)

###

target: Alpha glucosidase (Homo sapiens, UniProt O43451+P10253+P14410+Q2M2H8); assay: Inhibition of alpha-glucosidase (unknown origin) using PNPG as substrate incubated for 30 mins by absorbance assay; type: protein assay
measured.metric: IC50 (µM)

Worked cases, IC50 given:
* O=c1c2c(O)cc(O)cc2oc2cc(O)cc(O)c12 | 39
* C=Cc1cc2oc3cc(O)cc(O)c3c(=O)c2c(OC)c1O | 26.3
* O=c1c2ccccc2oc2cc(O)cc(O)c12 | 35.2

A: O=c1c2c(O)cc(O)cc2oc2ccc(O)c(O)c12
B: COc1cc(O)c2c(=O)c3c(OC)c(O)c(O)cc3oc2c1
-- ask Lower value of IC50 belongs to which: A or B ? Which one? Tell me its label.
-- reply A
(A: 23.2 µM, B: 44.5 µM)

###

target: Alpha-glucosidase (Saccharomyces cerevisiae S288c, UniProt P53341+P38158+P07265); assay: Inhibition of Saccharomyces cerevisiae alpha-glucosidase using maltose as substrate incubated for 30 mins by spectrophotometric assay; assay type: protein assay
measured.metric: IC50 (µM)

Worked cases, IC50 given:
* CC(C)=CC/C(C)=C/Cc1c(O)cc2oc3c(O)ccc(O)c3c(=O)c2c1O | 35.3
* C=C(C)/C=C/c1c(OC)c(O)cc2oc3cc4c(c(O)c3c(=O)c12)C=C(O)C(C)(C)O4 | 155.6
* C=C(C)/C=C/c1c(OC)c(O)cc2oc3cc4c(c(O)c3c(=O)c12)CC(O)C(C)(C)O4 (configuration not stated) | 102.5
* C=C(C)/C=C/c1c(OC)cc2oc3cc(O)c(OC)c(/C=C/C(=C)C)c3c(=O)c2c1O | 192

A: C=C(C)/C=C/c1c(O)c(CC=C(C)C)c2oc3c(O)cccc3c(=O)c2c1O
B: C=C(C)/C=C/c1c(O)cc2oc3cc(O)c(O)c(/C=C/C(=C)C)c3c(=O)c2c1O
C: C=C(C)/C=C/c1c(O)c(CC=C(C)C)c2oc3c(O)ccc(O)c3c(=O)c2c1O
D: C=C(C)/C=C/c1c(O)cc2oc3cc(O)c(OC)c(CC(=O)C(=C)C)c3c(=O)c2c1O
-- ask Order the items by recorded IC50; the first position goes to the largest value. Rank the items, then write their labels in that order.
-- reply A, D, C, B
(A: 137.2 µM, D: 85.7 µM, C: 37.7 µM, B: 17.5 µM)
